- assayed_system: SMARCA4 (Homo sapiens)
- Sequence (P51532 whole entry): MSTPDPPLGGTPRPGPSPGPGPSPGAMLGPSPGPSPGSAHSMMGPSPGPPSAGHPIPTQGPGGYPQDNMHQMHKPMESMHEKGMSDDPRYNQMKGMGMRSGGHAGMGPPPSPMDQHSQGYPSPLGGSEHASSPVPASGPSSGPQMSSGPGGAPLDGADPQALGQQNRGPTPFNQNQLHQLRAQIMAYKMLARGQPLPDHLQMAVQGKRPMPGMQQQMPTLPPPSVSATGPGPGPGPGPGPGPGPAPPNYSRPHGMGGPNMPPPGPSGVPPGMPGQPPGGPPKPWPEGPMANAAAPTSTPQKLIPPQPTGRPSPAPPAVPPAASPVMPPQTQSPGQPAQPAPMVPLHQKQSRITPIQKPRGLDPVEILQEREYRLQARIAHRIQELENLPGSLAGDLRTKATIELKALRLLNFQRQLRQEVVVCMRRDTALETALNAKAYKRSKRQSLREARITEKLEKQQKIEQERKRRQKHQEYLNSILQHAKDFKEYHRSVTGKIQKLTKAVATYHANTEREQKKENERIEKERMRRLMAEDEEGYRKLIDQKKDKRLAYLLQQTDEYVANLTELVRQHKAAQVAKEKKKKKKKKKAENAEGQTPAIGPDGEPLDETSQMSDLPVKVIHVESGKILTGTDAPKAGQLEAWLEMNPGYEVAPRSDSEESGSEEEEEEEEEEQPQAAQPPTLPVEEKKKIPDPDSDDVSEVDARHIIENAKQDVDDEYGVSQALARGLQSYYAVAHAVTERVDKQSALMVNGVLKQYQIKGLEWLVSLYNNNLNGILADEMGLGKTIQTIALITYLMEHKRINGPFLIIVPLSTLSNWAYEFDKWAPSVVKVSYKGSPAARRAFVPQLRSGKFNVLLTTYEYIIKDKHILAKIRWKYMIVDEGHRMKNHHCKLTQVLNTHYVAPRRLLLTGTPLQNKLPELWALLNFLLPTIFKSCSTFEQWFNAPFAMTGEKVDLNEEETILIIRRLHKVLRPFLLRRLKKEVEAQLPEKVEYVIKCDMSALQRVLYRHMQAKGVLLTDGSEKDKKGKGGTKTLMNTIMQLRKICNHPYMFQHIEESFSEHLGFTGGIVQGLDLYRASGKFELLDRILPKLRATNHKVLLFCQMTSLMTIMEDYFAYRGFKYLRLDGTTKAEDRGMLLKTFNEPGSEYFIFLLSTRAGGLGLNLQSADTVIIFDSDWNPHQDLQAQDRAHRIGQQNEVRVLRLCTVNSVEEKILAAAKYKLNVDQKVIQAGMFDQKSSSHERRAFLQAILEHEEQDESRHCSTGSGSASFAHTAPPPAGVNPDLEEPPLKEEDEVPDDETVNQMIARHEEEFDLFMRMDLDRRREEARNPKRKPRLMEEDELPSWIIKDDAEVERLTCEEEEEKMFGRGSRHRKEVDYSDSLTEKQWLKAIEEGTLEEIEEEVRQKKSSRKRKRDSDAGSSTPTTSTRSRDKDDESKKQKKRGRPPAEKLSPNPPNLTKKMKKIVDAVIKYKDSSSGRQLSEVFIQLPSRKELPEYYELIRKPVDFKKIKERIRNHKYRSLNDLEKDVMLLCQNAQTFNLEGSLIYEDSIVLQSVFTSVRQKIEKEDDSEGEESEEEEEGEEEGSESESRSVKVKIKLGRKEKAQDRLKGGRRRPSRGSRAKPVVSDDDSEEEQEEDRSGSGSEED
- assay_text: HiBiT assay for protein degradation, Hela SMARCA4-HiBiT cells (A series)
- Type: cell-based
- Set-up: fuse HiBiT to the carboxy terminus of SMARCA2 (Promega CS302365) or SMARCA4 (Promega CS3023225); host or cells: HeLa (CRISPR/Cas9 HiBiT knock-in)
- details: Hela SMARCA4-HiBiT cells, 24 hours treatment; read-out: SMARC A4 Hela HiBit DC50
assay_readout: DC50

Hello, I am looking for reported DC50 with SMARCA4 (Homo sapiens) for `Cc1ncsc1-c1ccc([C@H](CN2CC(C)(O)C2)NC(=O)[C@@H]2C[C@@H](O)CN2C(=O)[C@@H](n2cc([C@H]3CC[C@H](CN4CCC(c5ccc6c(c5)-n5c(nc(=O)c7c(Cl)cccc75)C65CCCCC5)CC4)CC3)nn2)C(C)(C)C)cc1` . Could you help?
> 1 µM

Hello, I am looking for reported DC50 with SMARCA4 (Homo sapiens) for `Cc1ncsc1-c1ccc([C@H](CC(=O)N2CCC(c3ccc4c(c3)-n3c(nc(=O)c5c(Cl)cccc53)C43CCCCC3)CC2)NC(=O)[C@@H]2C[C@@H](O)CN2C(=O)[C@@H](n2cc(C3CC3)nn2)C(C)(C)C)cc1` . Could you help?
> 1 µM

Hello, I am looking for reported DC50 with SMARCA4 (Homo sapiens) for `Cc1ncsc1-c1ccc([C@H](CCCCCN2CCC(c3ccc4c(c3)C3(CCCCC3)c3nc(=O)c5c(Cl)cccc5n3-4)CC2)NC(=O)[C@@H]2C[C@@H](O)CN2C(=O)[C@@H](NC(=O)C2(F)CC2)C(C)(C)C)cc1` . Could you help?
< 0.1 µM

Hello, I am looking for reported DC50 with SMARCA4 (Homo sapiens) for `CC(C)(C)[C@@H](C(=O)N1C[C@H](O)C[C@H]1C(=O)N[C@@H](CN1CCOCC1)c1ccc(-c2ccncc2)cc1)n1cc([C@H]2CC[C@H](CN3CCC(c4ccc5c(c4)-n4c(nc(=O)c6c(Cl)cccc64)C54CCCCC4)CC3)CC2)nn1` . Could you help?
> 1 µM

Hello, I am looking for reported DC50 with SMARCA4 (Homo sapiens) for `Cc1ncsc1-c1ccc([C@H](CN2CCOCC2)NC(=O)[C@@H]2C[C@@H](O)CN2C(=O)[C@@H](n2cc([C@H]3CC[C@H](CN4CCC(c5ccc6c(c5)-n5c(nc(=O)c7c(Cl)cccc75)C6(C)C)CC4)CC3)nn2)C(C)(C)C)cc1` . Could you help?
> 1 µM

Hello, I am looking for reported DC50 with SMARCA4 (Homo sapiens) for `Cc1ncsc1-c1ccc([C@H](C)NC(=O)[C@@H]2C[C@@H](O)CN2C(=O)[C@H](C2CCNCC2)n2cc([C@H]3CC[C@H](CN4CCC(c5ccc6c(c5)-n5c(nc(=O)c7c(Cl)cccc75)C65CCCCC5)CC4)CC3)nn2)cc1` . Could you help?
> 1 µM

Hello, I am looking for reported DC50 with SMARCA4 (Homo sapiens) for `Cc1ncsc1-c1ccc([C@H](C)NC(=O)[C@@H]2C[C@@H](O)CN2C(=O)[C@H](C2CCN(C(=O)CCCCN3CCC(c4ccc5c(c4)-n4c(nc(=O)c6c(Cl)cccc64)C54CCCCC4)CC3)CC2)n2cc(C3CC3)nn2)cc1` . Could you help?
> 1 µM

Hello, I am looking for reported DC50 with SMARCA4 (Homo sapiens) for `Cc1ncsc1-c1ccc([C@H](C)NC(=O)[C@@H]2C[C@@H](O)CN2C(=O)[C@@H](NC(=O)[C@H]2CC[C@H](CN3CC(N4CCC(c5ccc6c(c5)C5(CCCCC5)c5nc(=O)c7c(Cl)cccc7n5-6)CC4)C3)CC2)C(C)(C)C)cc1` . Could you help?
0.501 to 1 µM

Hello, I am looking for reported DC50 with SMARCA4 (Homo sapiens) for `COCCOCCOCCOC[C@H](NC(=O)[C@@H]1C[C@@H](O)CN1C(=O)[C@@H](n1cc([C@H]2CC[C@H](CN3CCC(c4ccc5c(c4)-n4c(nc(=O)c6c(Cl)cccc64)C5(C)C)CC3)CC2)nn1)C(C)(C)C)c1ccc(-c2scnc2C)cc1` . Could you help?
> 1 µM

Hello, I am looking for reported DC50 with SMARCA4 (Homo sapiens) for `Cc1ncsc1-c1ccc([C@H](CNC(=O)[C@H]2CC[C@H](CN3CCC(c4ccc5c(c4)C4(CCCCC4)c4nc(=O)c6c(Br)cccc6n4-5)CC3)CC2)NC(=O)[C@@H]2C[C@@H](O)CN2C(=O)[C@@H](n2cc(C3CC3)nn2)C(C)(C)C)cc1` . Could you help?
> 1 µM

Hello, I am looking for reported DC50 with SMARCA4 (Homo sapiens) for `Cc1ncsc1-c1ccc([C@H](C)NC(=O)[C@@H]2C[C@@H](O)CN2C(=O)[C@H](C2CCN(C3CCOCC3)CC2)n2cc([C@H]3CC[C@H](CN4CCC(c5ccc6c(c5)-n5c(nc(=O)c7c(Cl)cccc75)C65CCCCC5)CC4)CC3)nn2)cc1` . Could you help?
0.1 to 1 µM

Hello, I am looking for reported DC50 with SMARCA4 (Homo sapiens) for `Cc1ncsc1-c1ccc([C@H](CN2CCC3(COC3)C2)NC(=O)[C@@H]2C[C@@H](O)CN2C(=O)[C@@H](n2cc([C@H]3CC[C@H](CN4CCC(c5ccc6c(c5)-n5c(nc(=O)c7c(Cl)cccc75)C6(C)C)CC4)CC3)nn2)C(C)(C)C)cc1` . Could you help?
> 1 µM

Hello, I am looking for reported DC50 with SMARCA4 (Homo sapiens) for `Cc1ncsc1-c1ccc([C@H](CN2CCOCC2)NC(=O)[C@@H]2C[C@@H](O)CN2C(=O)[C@H](C(C)C)n2cc([C@H]3CC[C@H](CN4CCC(c5ccc6c(c5)-n5c(nc(=O)c7c(Cl)cccc75)C6(C)C)CC4)CC3)nn2)cc1` . Could you help?
> 1 µM

Hello, I am looking for reported DC50 with SMARCA4 (Homo sapiens) for `COCCOC[C@H](NC(=O)[C@@H]1C[C@@H](O)CN1C(=O)[C@@H](n1cc([C@H]2CC[C@H](CN3CCC(c4ccc5c(c4)-n4c(nc(=O)c6c(Cl)cccc64)C54CCCCC4)CC3)CC2)nn1)C(C)(C)C)c1ccc(-c2scnc2C)cc1` . Could you help?
> 1 µM

Hello, I am looking for reported DC50 with SMARCA4 (Homo sapiens) for `Cc1ncsc1-c1ccc([C@H](C)NC(=O)[C@@H]2C[C@@H](O)CN2C(=O)[C@@H](n2cc([C@H]3CC[C@H](CN4CCC(c5ccc6c(c5)-n5c(nc(=O)c7c(Br)cccc75)C65CCCCC5)CC4)CC3)nn2)C(C)(C)C)cc1` . Could you help?
0.1 to 0.5 µM

---

- assayed_system: UniProtKB P51532
- assay_text: HiBiT assay for protein degradation, Hela SMARCA4-HiBiT cells (A series)
- Type: cell-based
- Parameters: fuse HiBiT to the carboxy terminus of SMARCA2 (Promega CS302365) or SMARCA4 (Promega CS3023225); host or cells: HeLa (CRISPR/Cas9 HiBiT knock-in)
- details: Hela SMARCA4-HiBiT cells, 24 hours treatment; read-out: SMARC A4 Hela HiBit DC50
assay_readout: DC50

Fill blank: measured DC50 of the molecule `Cc1ncsc1-c1ccc([C@@H](NC(=O)[C@@H]2C[C@@H](O)CN2C(=O)[C@@H](n2cc(C3CC3)nn2)C(C)(C)C)C(=O)N2CCC(CN3CCC(c4ccc5c(c4)-n4c(nc(=O)c6c(Br)cccc64)C54CCCCC4)CC3)CC2)cc1` is ____.
< 10 nM

Fill blank: measured DC50 of the molecule `Cc1ncsc1-c1ccc([C@H](CN2CCC(C(F)(F)F)CC2)NC(=O)[C@@H]2C[C@@H](O)CN2C(=O)[C@@H](n2cc([C@H]3CC[C@H](CN4CCC(c5ccc6c(c5)-n5c(nc(=O)c7c(Cl)cccc75)C65CCCCC5)CC4)CC3)nn2)C(C)(C)C)cc1` is ____.
> 1000 nM

Fill blank: measured DC50 of the molecule `Cc1ncsc1-c1ccc([C@H](C)NC(=O)[C@@H]2C[C@@H](O)CN2C(=O)[C@@H](n2cc([C@H]3CC[C@H](CN4CCC(c5ccc6c(n5)-n5c(nc(=O)c7c(Cl)cccc75)C65CCCCC5)CC4)CC3)nn2)C(C)(C)C)cc1` is ____.
> 1000 nM

Fill blank: measured DC50 of the molecule `Cc1ncsc1-c1ccc([C@H](Cn2cc(CN3CCC(c4ccc5c(c4)-n4c(nc(=O)c6c(Br)cccc64)C54CCCCC4)CC3)nn2)NC(=O)[C@@H]2C[C@@H](O)CN2C(=O)[C@@H](n2cc(C3CC3)nn2)C(C)(C)C)cc1` is ____.
100 to 1000 nM

Data provenance is patent US20260092071A1.
